Each entry below lists one item and its recorded IC50 value.
# Measurement Target: farnesyl transferase (Homo sapiens, UniProt P49354+P49356)
# Method Description: Farnesyl transferase inhibition, [3H]-farnesylation of biotinylated K-ras C-terminal peptide (SPA assay)
# Format: biochemical
# Assay Context: In vitro inhibitory activity (K-Ras) IC50, K-Ras substrate; 60 min at 37° C.; mean of two IC50 values
Test Readout: IC50 (nM)

- Compound: "COc1ccccc1CC(=O)N1C[C@H]2[C@@]3(c4cccc(C)c4)CC[C@H](c4ccccc43)[C@@]2(C(=O)O)C1 (relative stereo) [Example 9]"
  Test Readout: "IC50"
  Unit Name: "nM"
  Result Number: 55
- Compound: "COc1ccccc1CC(=O)N1C[C@H]2[C@@]3(c4ccc(C)cc4)CC[C@H](c4ccccc43)[C@@]2(C(=O)O)C1 (single isomer, unassigned) [Example 30]"
  Test Readout: "IC50"
  Unit Name: "nM"
  Result Number: 74
- Compound: "COc1ccccc1CC(=O)N1C[C@H]2[C@@]3(c4ccc(C)cc4)CC[C@H](c4ccccc43)[C@@]2(C(=O)O)C1 (relative stereo) [Example 5]"
  Test Readout: "IC50"
  Unit Name: "nM"
  Result Number: 50

###

# Measurement Target: farnesyl transferase (Homo sapiens, UniProt P49354+P49356)
# Method Description: Farnesyl transferase inhibition, [3H]-farnesylation of biotinylated K-ras C-terminal peptide (SPA assay)
# Format: biochemical
# Assay Context: K-Ras substrate; 60 min at 37° C.; mean of two IC50 values; read-out: In vitro inhibitory activity (K-Ras) IC50
pIC50: −log10 of the molar value.
Each entry below lists one item and its recorded pIC50 value.

- Compound: "C=C(C(=O)N1C[C@@H]2[C@]3(c4ccc(CC)cc4)CC[C@@H](c4ccccc43)[C@]2(C(=O)OC)C1)c1ccccc1OC (racemic)"
  Measurement Target: "farnesyl transferase (Homo sapiens, UniProt P49354+P49356)"
  pIC50: 6.39
- Compound: "C=C(C(=O)N1C[C@@H]2[C@]3(c4ccc(Cl)cc4)CC[C@@H](c4ccccc43)[C@]2(C(=O)O)C1)c1ccccc1OC (racemic)"
  Measurement Target: "farnesyl transferase (Homo sapiens, UniProt P49354+P49356)"
  pIC50: 7.70
- Compound: "C=C(C(=O)N1C[C@H]2[C@@]3(c4cccc(Cl)c4)CC[C@H](c4ccccc43)[C@@]2(C(=O)NCc2cccnc2)C1)c1ccccc1OC (relative stereo)"
  Measurement Target: "farnesyl transferase (Homo sapiens, UniProt P49354+P49356)"
  pIC50: 7.17
- Compound: "C=C(C(=O)N1C[C@@H]2[C@]3(c4ccc(C)cc4)CC[C@@H](c4ccccc43)[C@]2(C(N)=O)C1)c1ccccc1OC (racemic)"
  Measurement Target: "farnesyl transferase (Homo sapiens, UniProt P49354+P49356)"
  pIC50: 6.77
- Compound: "C=C(C(=O)N1C[C@H]2[C@@]3(c4ccc(C)cc4)CC[C@H](c4ccccc43)[C@@]2(C(=O)NN2CCCCC2)C1)c1ccccc1OC (relative stereo)"
  Measurement Target: "farnesyl transferase (Homo sapiens, UniProt P49354+P49356)"
  pIC50: 7.08
- Compound: "C=C(C(=O)N1C[C@H]2[C@@]3(c4cccc(N(C)C)c4)CC[C@H](c4ccccc43)[C@@]2(C(=O)OC)C1)c1ccccc1OC (relative stereo)"
  Measurement Target: "farnesyl transferase (Homo sapiens, UniProt P49354+P49356)"
  pIC50: 6.74
- Compound: "C=C(C(=O)N1C[C@@H]2[C@]3(c4ccc5c(c4)OCO5)CC[C@@H](c4ccccc43)[C@]2(C(=O)O)C1)c1ccccc1OC (racemic)"
  Measurement Target: "farnesyl transferase (Homo sapiens, UniProt P49354+P49356)"
  pIC50: 7.17
- Compound: "C=C(C(=O)N1C[C@@H]2[C@]3(c4cccc(Cl)c4)CC[C@@H](c4ccccc43)[C@]2(C(=O)OC)C1)c1ccccc1OC (racemic)"
  Measurement Target: "farnesyl transferase (Homo sapiens, UniProt P49354+P49356)"
  pIC50: 6.39
- Compound: "C=C(C(=O)N1C[C@@H]2[C@]3(c4ccc5ccccc5c4)CC[C@@H](c4ccccc43)[C@]2(C(=O)O)C1)c1ccccc1OC (relative stereo)"
  Measurement Target: "farnesyl transferase (Homo sapiens, UniProt P49354+P49356)"
  pIC50: 6.88
- Compound: "C=C(C(=O)N1C[C@@H]2[C@]3(c4cccc(F)c4)CC[C@@H](c4ccccc43)[C@]2(C(=O)OC)C1)c1ccccc1OC (racemic)"
  Measurement Target: "farnesyl transferase (Homo sapiens, UniProt P49354+P49356)"
  pIC50: 6.29
- Compound: "C=C(C(=O)N1C[C@H]2[C@@]3(c4cccc(F)c4)CC[C@H](c4ccccc43)[C@@]2(C(=O)NCc2cccnc2)C1)c1ccccc1OC (relative stereo)"
  Measurement Target: "farnesyl transferase (Homo sapiens, UniProt P49354+P49356)"
  pIC50: 7.19
- Compound: "C=C(C(=O)N1C[C@@H]2[C@]3(c4ccc(CC)cc4)CC[C@@H](c4ccccc43)[C@]2(C(=O)O)C1)c1ccccc1OC (racemic)"
  Measurement Target: "farnesyl transferase (Homo sapiens, UniProt P49354+P49356)"
  pIC50: 6.91

###

# Measurement Target: farnesyl transferase (Homo sapiens, UniProt P49354+P49356)
# Method Description: Farnesyl transferase inhibition, [3H]-farnesylation of biotinylated K-ras C-terminal peptide (SPA assay)
# Format: biochemical
# Assay Context: K-Ras substrate; 60 min at 37° C.; mean of two IC50 values; read-out: In vitro inhibitory activity (K-Ras) IC50
# Procedure: The farnesyl transferase activity was measured by the amount farnesylated of K-ras substrate or of substrate derived from the peptide corresponding to its C-terminal part, the farnesyl group being introduced by farnesyl pyrophosphate (FPP). It was then brought into contact with PVT-streptavidin (Amersham)® beads and was quantified by proximity scintillation (SPA assay) between the tritium and the PVT beads, by virtue of the streptavidin/biotin interaction. […]
Decision: IC50 beneath 200 nM gives condition met; IC50 meeting or exceeding 200 nM gives condition not met.

- Compound: "C=C(C(=O)N1C[C@@H]2[C@@]3(c4c[nH]c5ccccc45)CC[C@@H](c4ccccc43)[C@]2(C(=O)OC)C1)c1ccccc1OC (racemic)"
  Measurement Target: "farnesyl transferase (Homo sapiens, UniProt P49354+P49356)"
  Class: "condition not met"
- Compound: "C=C(C(=O)N1C[C@@H]2[C@]3(c4ccc5c(c4)CCO5)CC[C@@H](c4ccccc43)[C@]2(C(=O)OC)C1)c1ccccc1OC (racemic)"
  Measurement Target: "farnesyl transferase (Homo sapiens, UniProt P49354+P49356)"
  Class: "condition met"
- Compound: "C=C(C(=O)N1C[C@H]2[C@@]3(c4cccc(N(C)C)c4)CC[C@H](c4ccccc43)[C@@]2(C(=O)O)C1)c1ccccc1OC (relative stereo)"
  Measurement Target: "farnesyl transferase (Homo sapiens, UniProt P49354+P49356)"
  Class: "condition met"
- Compound: "C=C(C(=O)N1C[C@@H]2[C@]3(c4ccc5c(c4)CCO5)CC[C@@H](c4ccccc43)[C@]2(C(=O)NCc2cccnc2)C1)c1ccccc1OC (relative stereo)"
  Measurement Target: "farnesyl transferase (Homo sapiens, UniProt P49354+P49356)"
  Class: "condition met"
- Compound: "C=C(C(=O)N1C[C@@H]2[C@]3(c4ccc(C)cc4)CC[C@@H](c4c(OC)cccc43)[C@]2(C(=O)OC)C1)c1ccccc1OC (racemic)"
  Measurement Target: "farnesyl transferase (Homo sapiens, UniProt P49354+P49356)"
  Class: "condition not met"
- Compound: "C=C(C(=O)N1C[C@@H]2[C@]3(c4ccc(Cl)cc4)CC[C@@H](c4ccccc43)[C@]2(C(=O)OC)C1)c1ccccc1OC (racemic)"
  Measurement Target: "farnesyl transferase (Homo sapiens, UniProt P49354+P49356)"
  Class: "condition met"
- Compound: "C=C(C(=O)N1C[C@@H]2[C@]3(c4ccc5ccccc5c4)CC[C@@H](c4ccccc43)[C@]2(C(=O)OC)C1)c1ccccc1OC (racemic)"
  Measurement Target: "farnesyl transferase (Homo sapiens, UniProt P49354+P49356)"
  Class: "condition met"
- Compound: "C=C(C(=O)N1C[C@@H]2[C@]3(c4cccc(Br)c4)CC[C@@H](c4ccccc43)[C@]2(C(=O)O)C1)c1ccccc1OC (racemic)"
  Measurement Target: "farnesyl transferase (Homo sapiens, UniProt P49354+P49356)"
  Class: "condition met"
- Compound: "C=C(C(=O)N1C[C@@H]2[C@]3(c4ccc(OC)cc4)CC[C@@H](c4ccccc43)[C@]2(C(=O)NO)C1)c1ccccc1OC (racemic)"
  Measurement Target: "farnesyl transferase (Homo sapiens, UniProt P49354+P49356)"
  Class: "condition met"
- Compound: "C=C(C(=O)N1C[C@@H]2[C@]3(c4ccc(OC)cc4)CC[C@@H](c4ccccc43)[C@]2(C(=O)OC)C1)c1ccccc1OC (racemic)"
  Measurement Target: "farnesyl transferase (Homo sapiens, UniProt P49354+P49356)"
  Class: "condition not met"
- Compound: "C=C(C(=O)N1C[C@H]2[C@@]3(c4ccc(C)cc4)CC[C@H](c4ccccc43)[C@@]2(C(=O)NNc2ccccc2)C1)c1ccccc1OC (relative stereo)"
  Measurement Target: "farnesyl transferase (Homo sapiens, UniProt P49354+P49356)"
  Class: "condition not met"
- Compound: "COC(=O)[C@@]12CN(C(=O)Cc3ccccc3OC)C[C@@H]1[C@]1(c3ccc(C)c(C)c3)CC[C@H]2c2ccccc21 (racemic)"
  Measurement Target: "farnesyl transferase (Homo sapiens, UniProt P49354+P49356)"
  Class: "condition not met"
